Attribute: MBC
System: S. aureus MRSA3
ASSAY_NOTES: Broth microdilution antimicrobial assay (MIC/MMC)
Type: cell-based, Staphylococcus aureus
MEASUREMENT_PARAMETERS: Staphylococcus aureus, 24 h; S. aureus MRSA3; no growth after sub-culturing
Experimental: The microorganisms used in this study include four bacterial (Staphylococcus aureus ATCC25923, methicillin sensitive S. aureus MSSA1, methicillin resistant S. aureus MRSA3 and methicillin resistant S. aureus MRSA4) and three yeast strains (Candida albicans ATCC10231, Candida tropicalis PK233 and Cryptococcus neoformans H99). […] The antimicrobial activity was evaluated by determining the minimum inhibitory concentrations (MICs). MICs of extracts and compounds were determined by broth micro dilution. […]
ENDPOINT: MBC

chemical_structure=C[C@H]1[C@H](C)CC[C@]2(C(=O)O)CC[C@]3(C)C(=CC[C@@H]4[C@@]5(C)CC[C@H](O)C(C)(C)[C@@H]5CC[C@]43C)[C@H]12 measured="> 256 µg/mL"
chemical_structure=C=C(C)[C@@H]1CC[C@]2(C)CC[C@]3(C)[C@H](CC[C@@H]4[C@@]5(C)CC[C@H](O)C(C)(C)[C@@H]5CC[C@]43C)[C@@H]12 measured="> 256 µg/mL"
chemical_structure=O=c1cc(-c2ccc(O)cc2)oc2c([C@@H]3O[C@H](CO)[C@@H](O)[C@H](O)[C@H]3O)c(O)cc(O)c12 measured="128 µg/mL"
